Value source: PubChem BioAssay AID2161

A collection of molecules and their measured Potency
- experimentalSystem: Papain (Carica papaya); also: nearly all actives have a fitted effect of over 35% in size; also: potency is read from the fitted curve at half-maximal effect
- measurementDescription: qHTS Assay for Inhibitors of Papain: Counterscreen for Cruzain Assay
- measurementParameters: purified papain, Z-FR-AMC fluorescence cleavage
The other results are listed elsewhere or left out. Calls of active or inactive are those of the source. Calls follow the shape of the dose curve; as a rule, active = well fitted inhibition curve with a large enough effect; inactive = no such curve, though single readings can be large or run the other way.

# annotated cases, reported Potency shown
CC(C)C[C@H](NC(=O)[C@@H]1O[C@H]1C(=O)O)C(=O)NCCCCN=C(N)N : 0.01 µM (active)
C=CC(=O)c1ccc2ccccc2c1 : 12.6 µM (active)
CCN(CC)c1nc(C#N)nc(OC)n1 : 5.01 µM (active)

// switching to the query molecule
Record "N#Cc1nc(Nc2cc(F)cc(Cl)c2)nc(NC2CCCC2)n1" . Reported Potency: 1.12 µM (active)

* * *

- experimentalSystem: Papain (Carica papaya) (UniProt P00784); also: nearly all actives have a fitted effect of over 35% in size;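 as to max response, negative = inhibition: 0% = no-compound wells and -100% = no-enzyme wells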
- Sequence (P00784 whole entry, looked up): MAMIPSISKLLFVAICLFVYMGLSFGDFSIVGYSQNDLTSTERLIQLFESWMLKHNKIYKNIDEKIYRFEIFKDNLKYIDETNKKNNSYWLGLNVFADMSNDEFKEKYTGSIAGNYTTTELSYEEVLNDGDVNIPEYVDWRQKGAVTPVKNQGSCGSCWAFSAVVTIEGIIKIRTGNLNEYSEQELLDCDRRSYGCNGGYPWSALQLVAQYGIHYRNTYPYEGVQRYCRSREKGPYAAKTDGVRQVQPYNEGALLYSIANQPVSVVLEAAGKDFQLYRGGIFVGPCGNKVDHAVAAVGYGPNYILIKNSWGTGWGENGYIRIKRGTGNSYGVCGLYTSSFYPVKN
- measurementDescription: qHTS Assay for Inhibitors of Papain: Counterscreen for Cruzain Assay
- measurementParameters: purified papain, Z-FR-AMC fluorescence cleavage; active compounds read low
The other results are listed elsewhere or left out.
max response, negative = inhibition under -50% gets 1, anything at or over -50% gets 0.

Here's what some known entries look like.
C=CCNC(=O)c1ccc2nc(-c3ccco3)c(-c3ccco3)nc2c1 : 1
Cn1c(C(=O)NCCN2CCc3ccccc3C2)cc2c(=O)[nH]c3ccccc3c21 : 0
O=C1OC(/C=C/c2ccccc2)=NC/1=C/c1ccco1 : 0

Attention now shifts to the item below.
Q. Strictly below -50% in max response, negative = inhibition? "O=C(OCN1C(=O)c2ccccc2C1=O)/C(=C\c1ccco1)NC(=O)c1ccccc1"
A. 0
